System: Nucleic Acid
PROTOCOL SUMMARY: Binding affinity to human telomeric G4 DNA of sequence 5'-FAM-d(GGG[TTAGGG]3)-TAMRA-3' assessed as change in melting temperature by FRET DNA melting assay; note: test concentration or dose not given here
Type: nucleic-acid assay
MEASURED PROPERTY: ΔTm (°C)

# COMPOUND SMILES, MEASURED PROPERTY, MEASUREMENT UNITS, RECORDED VALUE
measured = [
    ("CN(C)CCCNc1ccc(NC(=O)c2cccc3c(=O)c4cccc(C(=O)Nc5ccc(NCCCN(C)C)cc5)c4[nH]c23)cc1", "ΔTm", "°C", 31),
    ("O=C(CCN1CCOCC1)Nc1ccc(NC(=O)c2cccc3c(=O)c4cccc(C(=O)Nc5ccc(NC(=O)CCN6CCOCC6)cc5)c4[nH]c23)cc1", "ΔTm", "°C", 19),
    ("O=C(CCN1CCCC1)Nc1ccc(NC(=O)c2cccc3c(=O)c4cccc(C(=O)Nc5ccc(NC(=O)CCN6CCCC6)cc5)c4[nH]c23)cc1", "ΔTm", "°C", 34),
]

1: Cn1cc(NC(=O)c2cccc3c(=O)c4cccc(C(=O)Nc5cc(C(=O)NCCCN6CCCC6)n(C)c5)c4[nH]c23)cc1C(=O)NCCCN1CCCC1
2: CN(C)CCC(=O)Nc1ccc(NC(=O)c2cccc3c(=O)c4cccc(C(=O)Nc5ccc(NC(=O)CCN(C)C)cc5)c4[nH]c23)cc1
[ask] Between 1 and 2 , whose recorded ΔTm is greater? // return label of chosen record
[reply] 2

Values were extracted from ChEMBL document CHEMBL1155326.
